Lab note: MIC readings collected with H. influenzae ATCC 49247 for the following molecules.

molecule	units	op	MIC
CC1=C\[C@@H](O)CC(=O)Cc2nc(c([Si](C)(C)C)o2)C(=O)N2CCC[C@@H]2C(=O)O[C@H](C(C)C)[C@H](C)/C=C/C(=O)NC\C=C\1 [SA0110261]	µg/mL	>	64
CC1=C\[C@@H](O)CC(=O)Cc2nc(co2)C(=O)N2CCC[C@@H]2C(=O)O[C@H]([C@@H](C)CN2CCC(N(C)C)CC2)[C@H](C)/C=C/C(=O)NC\C=C\1 [SA0110252]	µg/mL	>	64
CC1=C\[C@@H](O)CC(=O)Cc2nc(co2)C(=O)N2CCC=C2C(=O)O[C@H](C(C)C)[C@H](C)/C=C/C(=O)NC\C=C\1 [virginiamycin M1, Virginiamycin M1, reference compound]	µg/mL	=	1
CC1=C\[C@@H](O)CC(N)Cc2nc(cs2)C(=O)N2CCC[C@@H]2C(=O)O[C@H](C(C)C)[C@H](C)/C=C/C(=O)NC\C=C\1 (stereo partly drawn) [SA0110268]	µg/mL	=	64
C[C@H]1COc2c(N3CCN(C)CC3)c(F)cc3c(=O)c(C(=O)O)cn1c23 [levofloxacin]	µg/mL	=	0.03
CC1=C\[C@@H](O)CC(=O)Cc2nc(co2)C(=O)N2CCC[C@@H]2C(=O)O[C@H]([C@@H](C)COC(=O)Nc2cccnc2)[C@H](C)/C=C/C(=O)NC\C=C\1 [SA0110067]	µg/mL	>	64

* * *

# System: Gram-Negative Organisms
# testName: microbe, parasite or virus in culture
# Assay type: cell-based
# protocolConditions: Escherichia coli, read-out: Minimal Inhibitory Concentration (MIC), E. coli BAS2006, OMP C, OMP F
# key: entry, value: log10 MIC
measuredAttribute: log10 MIC (log10 of the value in µg/mL)

compound	log10 MIC
CC1=C\[C@@H](O)CC(=O)Cc2nc(co2)C(=O)N2CCC[C@@H]2C(=O)O[C@H]([C@@H](C)COC(=O)Nc2cnccn2)[C@H](C)/C=C/C(=O)NC\C=C\1	1.81
CC1=C\[C@@H](O)CC(=O)Cc2nc(co2)C(=O)N2CCC[C@@H]2C(=O)O[C@H]([C@@H](C)COC(=O)Nc2ccn(C)n2)[C@H](C)/C=C/C(=O)NC\C=C\1	1.81
COc1ccc(NC(=O)OC[C@@H](C)[C@H]2OC(=O)[C@H]3CCCN3C(=O)c3coc(n3)CC(=O)C[C@H](O)/C=C(C)/C=C/CNC(=O)/C=C/[C@H]2C)cc1	1.81
CC1=C\[C@@H](O)CC(=O)Cc2nc(co2)C(=O)N2CCC[C@@H]2C(=O)O[C@H]([C@H](C)COC(=O)Nc2ccnc(Br)c2)[C@H](C)/C=C/C(=O)NC\C=C\1	1.20
CC1=C\[C@@H](O)CC(=O)Cc2nc(co2)C(=O)N[C@H](C)C(=O)O[C@H](C(C)C)[C@H](C)/C=C/C(=O)NC\C=C\1 [madumycin I, Madumycin I, reference compound]	-0.30
CC1=C\[C@@H](O)CC(=O)Cc2nc(co2)C(=O)N2CCC[C@@H]2C(=O)O[C@H]([C@@H](C)COC(=O)Nc2ccc(F)cc2)[C@H](C)/C=C/C(=O)NC\C=C\1	0.90
COc1ccc(NC(=O)OC[C@H](C)[C@H]2OC(=O)[C@H]3CCCN3C(=O)c3coc(n3)CC(=O)C[C@H](O)/C=C(C)/C=C/CNC(=O)/C=C/[C@H]2C)cc1	1.20
CC1=C\[C@@H](O)CC(=O)Cc2nc(co2)C(=O)N2CCC[C@@H]2C(=O)O[C@H]([C@@H](C)COC(=O)Nc2ccccn2)[C@H](C)/C=C/C(=O)NC\C=C\1	1.51
CC1=C\[C@@H](O)CC(=O)Cc2nc(co2)C(=O)N2CCC[C@@H]2C(=O)O[C@H]([C@@H](C)COC(=O)Nc2ccc(C)cc2)[C@H](C)/C=C/C(=O)NC\C=C\1	1.20
CC1=C\[C@@H](O)CC(=O)Cc2nc(co2)C(=O)N2CCC[C@@H]2C(=O)O[C@H]([C@@H](C)COC(=O)Nc2ccc(Br)nc2)[C@H](C)/C=C/C(=O)NC\C=C\1	1.51
CC1=C\[C@@H](O)CC(=O)Cc2nc(co2)C(=O)N[C@H](Cc2c[nH]c3ccccc23)C(=O)O[C@H](C(C)C)[C@H](C)/C=C/C(=O)NC\C=C\1	1.51
CC1=C\[C@@H](O)CC(=O)Cc2nc(co2)C(=O)N2CCC[C@@H]2C(=O)O[C@H]([C@H](C)COC(=O)Nc2ccccc2)[C@H](C)/C=C/C(=O)NC\C=C\1	1.51
CC1=C\[C@@H](O)CC(=O)Cc2nc(co2)C(=O)N2CCC[C@@H]2C(=O)O[C@H]([C@@H](C)COC(=O)Nc2csc(C)n2)[C@H](C)/C=C/C(=O)NC\C=C\1	1.20
CC1=C\[C@@H](O)CC(=O)Cc2nc(co2)C(=O)N2CCC[C@@H]2C(=O)O[C@H]([C@@H](C)COC(=O)Nc2cccnc2)[C@H](C)/C=C/C(=O)NC\C=C\1	1.81
CC1=C\[C@@H](O)CC(=O)Cc2nc(co2)C(=O)N2CCC[C@@H]2C(=O)O[C@H]([C@@H](C)COC(=O)Nc2ccccc2)[C@H](C)/C=C/C(=O)NC\C=C\1	1.20

* * *

# System: S. pneumoniae
# testName: MIC, Gram-positive bacteria: S. pneumoniae
# Type: cell-based
# protocolConditions: Streptococcus pneumoniae, column 10, read-out: Minimal Inhibitory Concentration (MIC) S. pneumoniae

molecule	units	op	MIC
CC1=C\[C@@H](O)CC(=O)Cc2nc(co2)C(=O)N2CCC[C@@H]2C(=O)O[C@H]([C@@H](C)CN2CCC(N(C)C)CC2)[C@H](C)/C=C/C(=O)NC\C=C\1 [SA0110252]	mg/L	>	64
CC1=C\[C@@H](O)CC(=O)Cc2nc(co2)C(=O)N2CCC[C@@H]2C(=O)O[C@H]([C@H](C)CO)[C@H](C)/C=C/C(=O)NC\C=C\1 [SA0110170]	mg/L	=	64
COc1ccc(NC(=O)OC[C@@H](C)[C@H]2OC(=O)[C@H]3CCCN3C(=O)c3coc(n3)CC(=O)C[C@H](O)/C=C(C)/C=C/CNC(=O)/C=C/[C@H]2C)cc1 [SA0110185]	mg/L	=	32
CC1=C\[C@@H](O)CC(=O)Cc2nc(co2)C(=O)N2CCC[C@@H]2C(=O)O[C@H](C(C)(C)C)[C@H](C)/C=C/C(=O)NC\C=C\1 [SA0306004]	mg/L	=	64
CC1=C\[C@@H](O)CC(=O)Cc2nc(co2)C(=O)N[C@H](Cc2c[nH]c3ccccc23)C(=O)O[C@H](C(C)C)[C@H](C)/C=C/C(=O)NC\C=C\1 [SA0202089]	mg/L	=	32

* * *

# Test system: S. aureus
# testName: MIC, Gram-positive bacteria: S. aureus (strains not named)
# Assay type: cell-based
# protocolConditions: Staphylococcus aureus, third unnamed S. aureus column (c7), read-out: Minimal Inhibitory Concentration (MIC) S. aureus
Overview of recorded MIC for various compounds

compound	units	op	MIC
CC1=C\[C@@H](O)CC(=O)Cc2nc(co2)C(=O)N2CCC[C@@H]2C(=O)O[C@H]([C@H](C)COC(=O)Nc2coc(C)n2)[C@H](C)/C=C/C(=O)NC\C=C\1	µg/mL	>	64
CC1=C\[C@@H](O)CC(=O)Cc2nc(co2)C(=O)N2CCC[C@@H]2C(=O)O[C@H]([C@@H](C)COC(=O)Nc2ccccn2)[C@H](C)/C=C/C(=O)NC\C=C\1	µg/mL	>	64
CC1=C\[C@@H](O)CC(=O)Cc2nc(co2)C(=O)N2CCC[C@@H]2C(=O)O[C@H]([C@@H](C)CN2CCOCC2)[C@H](C)/C=C/C(=O)NC\C=C\1	µg/mL	>	64
CC1=C\[C@@H](O)CC(=O)Cc2nc(co2)C(=O)N2CCC[C@@H]2C(=O)O[C@H]([C@H](C)COC(=O)Nc2csc(C)n2)[C@H](C)/C=C/C(=O)NC\C=C\1	µg/mL	>	64
CC1=C\[C@@H](O)CC(=O)Cc2nc(co2)C(=O)N2CCC[C@@H]2C(=O)O[C@H]([C@H](C)COC(=O)Nc2ccc(Br)nc2)[C@H](C)/C=C/C(=O)NC\C=C\1	µg/mL	>	64
CC1=C\[C@@H](O)CC(=O)Cc2nc(co2)C(=O)N2CCC[C@@H]2C(=O)O[C@H]([C@H](C)COC(=O)Nc2ccccn2)[C@H](C)/C=C/C(=O)NC\C=C\1	µg/mL	>	64
CC1=C\[C@@H](O)CC(=O)Cc2nc(co2)C(=O)N2CCC[C@@H]2C(=O)O[C@H](C(C)C)[C@H](C)/C=C/C(=O)NC\C=C\1 [virginiamycin M2, Virginiamycin M2, reference compound]	µg/mL	=	32
CC1=C\[C@@H](O)CC(=O)Cc2nc(co2)C(=O)N2CCC[C@@H]2C(=O)O[C@H]([C@@H](C)COC(=O)Nc2ccc(F)cc2)[C@H](C)/C=C/C(=O)NC\C=C\1	µg/mL	>	64
CC1=C\[C@@H](O)CC(=O)Cc2nc(co2)C(=O)N2CCC[C@@H]2C(=O)O[C@H]([C@H](C)COC(=O)Nc2cccnc2)[C@H](C)/C=C/C(=O)NC\C=C\1	µg/mL	>	64
CC1=C\[C@@H](O)CC(=O)Cc2nc(co2)C(=O)N2CCC[C@@H]2C(=O)O[C@H]([C@@H](C)COC(=O)Nc2cccnc2)[C@H](C)/C=C/C(=O)NC\C=C\1	µg/mL	>	64
CC1=C\[C@@H](O)CC(=O)Cc2nc(co2)C(=O)N2CCC[C@@H]2C(=O)O[C@H]([C@@H](C)COC(=O)Nc2ccc(C)cc2)[C@H](C)/C=C/C(=O)NC\C=C\1	µg/mL	=	64
CC1=C\[C@@H](O)CC(=O)Cc2nc(co2)C(=O)N2CCC[C@@H]2C(=O)O[C@H]([C@H](C)COC(=O)Nc2ccc(OC(F)(F)F)cc2)[C@H](C)/C=C/C(=O)NC\C=C\1	µg/mL	=	16
CC1=C\[C@@H](O)CC(=O)Cc2nc(co2)C(=O)N[C@H](Cc2c[nH]c3ccccc23)C(=O)O[C@H](C(C)C)[C@H](C)/C=C/C(=O)NC\C=C\1	µg/mL	=	32
CC1=C\[C@@H](O)CC(=O)Cc2nc(co2)C(=O)N2CCC[C@@H]2C(=O)O[C@H]([C@H](C)COC(=O)Nc2ccc3ccccc3n2)[C@H](C)/C=C/C(=O)NC\C=C\1	µg/mL	=	16
CC1=C\[C@@H](O)CC(=O)Cc2nc(co2)C(=O)N[C@H](Cc2ccccc2)C(=O)O[C@H](C(C)C)[C@H](C)/C=C/C(=O)NC\C=C\1	µg/mL	=	64
